- Experiment Description: APR_HepG2_CellCycleArrest_72hr: Apredica 72-hour HepG2 Assay for Cell Cycle Arrest (AID 2282914)
- Reported Conditions: high-content imaging, actives raise or lower the signal
The source made the active and inactive calls. How the source made its calls: active means hit-call score of the fitted dose curve at least 0.9, where 1 is the maximum; inactive means score below 0.9.
Choose one outcome from this list and give only that: yes (1) = active, no (0) = inactive

Consider the worked cases shown below.
CCOC(=O)COc1cc(-c2nn(C)c(OC(F)F)c2Cl)c(F)cc1Cl | no (0)
S=C1NCCN1 | no (0)
CCc1cccc(C)c1N(C(=O)CCl)C(C)COC (configuration not stated) | no (0)
CC(C)N(C(=O)SCC(Cl)=C(Cl)Cl)C(C)C | no (0)
CCC(CC)Nc1c([N+](=O)[O-])cc(C)c(C)c1[N+](=O)[O-] | no (0)
CC(C)=CC1C(C(=O)OCN2C(=O)C3=C(CCCC3)C2=O)C1(C)C (configuration not stated) | no (0)
CSc1nnc(C(C)(C)C)c(=O)n1N | no (0)
C=C(C)[C@H]1Cc2c(ccc3c2O[C@@H]2COc4cc(OC)c(OC)cc4[C@@H]2C3=O)O1 | yes (1)
CNC(=O)Oc1cccc2c1OC(C)(C)O2 | no (0)
CCOP(=S)(Oc1cnc(C(C)(C)C)nc1)OC(C)C (configuration not stated) | yes (1)

# input For O=C(O)c1cc(Oc2ccc(C(F)(F)F)cc2Cl)ccc1[N+](=O)[O-] , which call appears in the assay record?
# output no (0)

# input Hi, do you know how Cc1ccn2nc(S(=O)(=O)Nc3c(F)cccc3F)nc2n1 came out in this test?
# output no (0)
